MEASUREMENT_CONDITIONS: buffer; pH 7.4; 6.0 h; 150.0 µM
# Lookup of reported solubility kinetic keyed by entry

MOLECULE | solubility kinetic
CC(CNC(=O)C1CCN(Cc2cc3ccccc3n2Cc2ccccc2)CC1)c1ccccc1 (stereo not given) | 1.05 µg/mL
CNc1sc(-c2cccc3ccccc23)nc1C#N | < 1 µg/mL
Cc1cc(NS(=O)(=O)c2ccc3c(c2)CCC(=O)N3)ccc1F | > 49 µg/mL
CCOc1ccc(CCNC(=O)c2cc3sccc3n2Cc2ccncc2)cc1OCC | 4.18 µg/mL
O=C1Nc2cc(Cl)ccc2/C1=C\c1cc(Cl)c(O)c(Cl)c1 | 5.95 µg/mL
Cc1ccc(S(=O)(=O)Nc2cc(C)ccc2C(=O)Nc2nc(-c3ccccc3)cs2)cc1 | < 1 µg/mL
C[C@H]1[C@@H](CCC(=O)Nc2ccc(F)cc2)O[C@@H]2O[C@]3(C)CC[C@@H]4[C@H](C)CC[C@@H]1[C@@]24OO3 | 24 µg/mL
CN(C(=O)COC(=O)c1csc(NCc2ccccc2)n1)c1ccccc1 | 26.4 µg/mL
COc1cccc(NC(=O)c2cccc3c(=O)c4c([nH]c23)CCCC4)c1 | < 1 µg/mL
Cc1ccc(S(=O)(=O)Nc2cnccc2C(=O)Nc2nc(-c3ccccc3F)cs2)cc1 | < 1 µg/mL

* * *

# Lookup of reported solubility kinetic keyed by entry
MEASUREMENT_CONDITIONS: buffer; pH 7.4; 6.0 h; 150.0 µM

COMPOUND | solubility kinetic
Cc1ccc(S(=O)(=O)Nc2ccccc2C(=O)Nc2ncc(-c3ccccc3)o2)cc1 | < 1 µg/mL
O=C(NCCCN1CCCC1=O)c1ccc(-c2ncc3cnc(-c4ccccc4)cn23)cc1 | 21.9 µg/mL
COC(=O)c1ccccc1C(=O)Nc1nc(-c2ccccc2)cs1 | 7.61 µg/mL
Cc1ccccc1C(=O)N1CCc2cc(-c3nc(NC(=O)c4ccc5c(c4)OCO5)sc3C)ccc21 | < 1 µg/mL
COc1ccc(Cl)cc1C(=O)Nc1nc(-c2ccccc2)cs1 | < 1 µg/mL
Nc1ncnc2c1c(-c1ccc(Oc3ccccc3)cc1)cn2C1CCCC1 | < 1 µg/mL
O=C1CCCC2=C1C(c1ccccc1Br)N=C(Nc1nc3ccccc3o1)N2 (stereo not given) | < 1 µg/mL
C#CCNC(=O)c1nc(-c2ccc([S+](C)(=O)[O-])cc2)c2cnccn12 | < 1 µg/mL
O=[S+]([O-])(Nc1nccs1)c1ccc(NCc2cccc3c2NCC3)cc1 | > 57 µg/mL
COc1cccc(CN(C)c2ccc([S+](=O)([O-])Nc3nccs3)cc2)c1O | 2.08 µg/mL

* * *

# Lookup of reported solubility kinetic keyed by entry
MEASUREMENT_CONDITIONS: buffer; pH 7.4; 6.0 h; 150.0 µM

MOLECULE | solubility kinetic
C=C1[C@@H](C)C2[C@H](Cc3ccccc3)NC(=O)[C@@]23C(/C=C/C[C@H](C)C[C@@](C)(O)/C=C/[C@@H]3OC(C)=O)[C@@H]1O (stereo not given in full) | 1.9 µg/mL
Cc1cc(C)cc(C(=O)Nc2ccc3c(N4CCCC4)ncnc3c2)c1 | < 1 µg/mL
COc1ccc(CN2CCNc3cc(Nc4ccccc4)ncc3C2)cn1 | 31.1 µg/mL
Cc1cc(C)c(C(=O)Nc2cccc([S+](=O)([O-])Nc3ccc(Br)cc3)c2)[nH]1 | < 1 µg/mL
Cc1ccc(C(=O)N2CCc3c(nc4cc(-c5ccccc5)[nH]n4c3=O)C2)cn1 | 8.67 µg/mL
COCCNC(=O)c1ccc(Cn2c(=S)[nH]c3cc4c(cc3c2=O)OCO4)cc1 | 6.98 µg/mL
Fc1ccc(Nc2nc(-c3ccncc3)cc3ccccc23)cc1F | 1.26 µg/mL
COc1ccc(-n2c(C)c(C(C)=O)c3ccccc32)cc1 | < 1 µg/mL
CCOC(=O)c1ccc(NC(=O)N2Cc3[nH]cnc3C[C@H]2c2nc(C(C)C)no2)cc1 | > 63 µg/mL
O=C(O)Cc1ccc2oc(-c3ccc(NC(=O)/C=C/c4ccc(Br)cc4)c(F)c3)nc2c1 | < 1 µg/mL
CC[C@@](C)(Nc1ccnc(-c2c[nH]c3ncccc23)n1)C(=O)NCC(F)(F)F | > 58 µg/mL
Cc1noc([C@@H]2CN(C(=O)c3nn(C)c4ccccc34)C[C@H]2CO)n1 | > 100 µg/mL
COc1cccc(CNc2ccc(S(=O)(=O)Nc3cccc(N4CCNCC4)c3)cc2)c1O | 51.1 µg/mL
COc1ccc(Nc2nc(-c3ccncc3)nc3ccccc23)cc1F | < 1 µg/mL
CSc1ccc(C(=O)c2[nH]c(=O)[nH]c2C)cc1 | > 37 µg/mL
Cc1ccnc(NC(=S)N2CCN(c3ccccc3C(F)(F)F)CC2)c1 | 8.07 µg/mL
Cc1ccc(NC(=O)c2cc(-c3ccc(C)o3)nc3ccccc23)nc1 | < 1 µg/mL
COc1ccc(NC(=O)c2cc(-c3ccc[nH]3)n[nH]2)cc1OC | > 31 µg/mL
COc1ccc2[nH]c(S(=O)Cc3ncc(C)c(OC)c3C)nc2n1 (stereo not given) | > 51 µg/mL
CC1=C[C@@H](CNCc2cccnc2)[C@H](C(C)C)C[C@H]1Cc1nnc(-c2ccc([N+](=O)[O-])cc2)o1 | > 68 µg/mL
